This listing pairs compounds with measured CC50.
# ASSAY_TEXT: Cytotoxicity against human MT2 cells assessed as reduction in cell growth by MTT assay
# Assay type: toxicity, cell-based

| COMPOUND_STRUCTURE | CC50 |
| --- | --- |
| COCc1cc(Oc2ccccc2OCCn2ccc(=O)[nH]c2=O)c(C)c2cc(C#N)ccc12 | 16 µM |
| Cc1c(Oc2ccccc2OCCn2ccc(=O)[nH]c2=O)cc(Cl)c2ccc(C#N)cc12 | > 100 µM |
| COc1cc(Oc2ccccc2OCCn2ccc(=O)[nH]c2=O)c(C)c2cc(C#N)ccc12 | > 100 µM |
| Cc1c(Oc2ccccc2OCCn2ccc(=O)[nH]c2=O)c(C)c2cc(C#N)ccc2c1C | > 100 µM |
| N#Cc1ccc2c(F)cc(Oc3ccccc3OCCn3ccc(=O)[nH]c3=O)c(Cl)c2c1 | > 100 µM |

---

# ASSAY_TEXT: Cytotoxicity against human MT2 cells assessed as reduction in cell growth by MTT assay
# Assay type: toxicity, cell-based
# note: boundary value 10 µM maps to false; CC50 below it maps to true

| COMPOUND_STRUCTURE | ASSIGNED_LABEL |
| --- | --- |
| Cc1cc2ccc(C#N)cc2c(C)c1Oc1ccccc1OCCn1ccc(=O)[nH]c1=O | true |
| N#Cc1ccc2cc(Oc3ccccc3OCCn3ccc(=O)[nH]c3=O)ccc2c1 | true |
| Cc1c(Oc2ccccc2OCCn2ccc(=O)[nH]c2=O)cc(F)c2ccc(C#N)cc12 | false |
| N#Cc1ccc2ccc(Oc3ccccc3OCCn3ccc(=O)[nH]c3=O)cc2c1 | false |
| Cc1c(Oc2ccc(F)cc2OCCn2ccc(=O)[nH]c2=O)cc(F)c2ccc(C#N)cc12 | false |
| N#Cc1ccc2c(Cl)cc(Oc3ccc(F)cc3OCCn3ccc(=O)[nH]c3=O)cc2c1 | false |
| Cc1cc(Oc2ccccc2OCCn2ccc(=O)[nH]c2=O)c(Cl)c2cc(C#N)ccc12 | false |
| Cc1c(Oc2ccc(Cl)cc2OCCn2ccc(=O)[nH]c2=O)cc(F)c2ccc(C#N)cc12 | true |
| Cc1c(Oc2ccc(F)cc2OCCn2ccc(=O)[nH]c2=O)cc(Cl)c2ccc(C#N)cc12 | false |
| N#Cc1ccc2c(Cl)cc(Oc3ccccc3OCCn3ccc(=O)[nH]c3=O)cc2c1 | false |
| CCc1cc(Oc2ccccc2OCCn2ccc(=O)[nH]c2=O)c(C)c2cc(C#N)ccc12 | false |
| Cc1c(Oc2ccccc2OCCn2ccc(=O)[nH]c2=O)cc(C(C)C)c2ccc(C#N)cc12 | true |
| Cc1c(Oc2ccccc2OCCn2ccc(=O)[nH]c2=O)cc(CC2CC2)c2ccc(C#N)cc12 | false |
| Cc1cc(Oc2ccccc2OCCn2ccc(=O)[nH]c2=O)c(C)c2cc(C#N)ccc12 | false |
| N#Cc1ccc2c(F)cc(Oc3ccc(F)cc3OCCn3ccc(=O)[nH]c3=O)c(Cl)c2c1 | false |
| N#Cc1ccc2ccc(Oc3ccc(F)cc3OCCn3ccc(=O)[nH]c3=O)cc2c1 | false |
| CCOc1cc(Oc2ccccc2OCCn2ccc(=O)[nH]c2=O)c(C)c2cc(C#N)ccc12 | false |
| Cc1cc(Oc2ccc(F)cc2OCCn2ccc(=O)[nH]c2=O)c(C)c2cc(C#N)ccc12 | false |
| Cc1cc(Oc2ccccc2OCCn2ccc(=O)[nH]c2=O)cc2cc(C#N)ccc12 | true |
| Cc1cc(Oc2ccc(F)cc2OCCn2ccc(=O)[nH]c2=O)c(F)c2cc(C#N)ccc12 | false |
| CCCc1cc(Oc2ccccc2OCCn2ccc(=O)[nH]c2=O)c(C)c2cc(C#N)ccc12 | false |
